Cited source for all entries: the RNAGym collection of RNA variant scans (doi:10.1093/nar/gkz1192)

B1: CPEB3 Ribozyme (parent)
chain: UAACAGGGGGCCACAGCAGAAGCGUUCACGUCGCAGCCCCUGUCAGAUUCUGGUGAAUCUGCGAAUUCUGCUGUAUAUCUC

Variants of: B1
Assay: self-cleavage, relative activity (ratio to wild type); higher = more cleavage; in vitro, sequencing
endpoint.name: self-cleavage
Give bare numbers.

Below, 4 variants whose answers are already recorded.
variant.notation: C38U U48C
self-cleavage: 0.35
--
variant.notation: A28C U31G
self-cleavage: 0.38
--
variant.notation: U25A G52C
self-cleavage: 0.27
--
variant.notation: C40G U60C
self-cleavage: 0.16

Provide the reported self-cleavage of each entry below, same order.
1. A15G G70U
2. U25C C71A
3. A28U U80A

Completion:
[0.18, 0.13, 0.71]
